Measured On: Sentrin-specific protease 8 (Homo sapiens) (UniProt Q96LD8)
Sequence (Q96LD8 whole entry, looked up): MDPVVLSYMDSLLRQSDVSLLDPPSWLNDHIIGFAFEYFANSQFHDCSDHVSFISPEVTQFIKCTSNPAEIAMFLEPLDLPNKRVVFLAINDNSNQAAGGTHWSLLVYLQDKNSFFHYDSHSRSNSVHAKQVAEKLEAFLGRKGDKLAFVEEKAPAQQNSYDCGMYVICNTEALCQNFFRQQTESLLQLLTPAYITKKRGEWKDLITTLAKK
Assay Summary: blockers of human SENP8 peptidase activity – biochemical, luminescence, primary screen (AID 2540)
Condition Context: purified SENP8, Z-RLRGG-aminoluciferin cleavage, at 10 µM, active compounds read high
Among all 330,000 compounds or so, about 4,100 (1.2%) were called active. The full list was thinned out, with actives kept by preference.
Exercise: state measured inhibition for each of the compounds provided.
Give your result in % as a bare value.

# assay system Sentrin-specific protease 8 (Homo sapiens) (UniProt Q96LD8): give inhibition of "COc1ccccc1N=C(C)C1=C(O)COC1=O"
-4.5

# assay system Sentrin-specific protease 8 (Homo sapiens) (UniProt Q96LD8): give inhibition of "COc1ccc(OC)c(NC(=O)c2cnn(-c3ccccc3Cl)c2NC(=O)c2ccco2)c1"
7.71

# assay system Sentrin-specific protease 8 (Homo sapiens) (UniProt Q96LD8): give inhibition of "COc1cc(N=Cc2c(O)c3ccccc3oc2=O)c(OC)cc1Cl"
20

# assay system Sentrin-specific protease 8 (Homo sapiens) (UniProt Q96LD8): give inhibition of "Cc1cccc(C(=O)Nc2nnc(S(=O)(=O)N3CCCCCC3)s2)c1"
18.3

# assay system Sentrin-specific protease 8 (Homo sapiens) (UniProt Q96LD8): give inhibition of "CN(C)c1ccc(/C=C/C(=O)c2ccc(O)cc2)cc1[N+](=O)[O-]"
-28.3

# assay system Sentrin-specific protease 8 (Homo sapiens) (UniProt Q96LD8): give inhibition of "O=C(Nc1nnc(S(=O)(=O)N2CCCCCC2)s1)c1cccc(Br)c1"
71.5

# assay system Sentrin-specific protease 8 (Homo sapiens) (UniProt Q96LD8): give inhibition of "CCOc1nnc(C)c2c(C)n(-c3cccc(Cl)c3)nc12"
8.66

# assay system Sentrin-specific protease 8 (Homo sapiens) (UniProt Q96LD8): give inhibition of "O=C(Nc1nnc(S(=O)(=O)N2CCOCC2)s1)c1cccc(Br)c1"
6.23

# assay system Sentrin-specific protease 8 (Homo sapiens) (UniProt Q96LD8): give inhibition of "CC(=O)c1ccc(NC(=O)c2ccc3c(Cl)c4c(nc3c2)CCCC4)cc1"
-0.476

# assay system Sentrin-specific protease 8 (Homo sapiens) (UniProt Q96LD8): give inhibition of "CN=C(NC#N)NCCSCc1nc[nH]c1C"
-4.47

# assay system Sentrin-specific protease 8 (Homo sapiens) (UniProt Q96LD8): give inhibition of "O=C(O)/C=C/c1ccc2c(c1)OCCO2"
1.06

* * *

Measured On: Sentrin-specific protease 8 (Homo sapiens)
Assay Summary: blockers of human SENP8 peptidase activity – biochemical, luminescence, primary screen (AID 2540)
Condition Context: purified SENP8, Z-RLRGG-aminoluciferin cleavage, at 10 µM
Screen size: about 330,000 compounds; about 4,100 (1.2%) were called active. Cut-off read from the data, not from the text of the source: active = inhibition above about 50%; inactive = the rest. The sample holds actives, similar compounds and a random draw of the others, so the mix is not that of the screen.
Just give me one of these, please: T for active, F for inactive

GET /call?item= COc1ccc(C(=O)OCC(=O)c2cc(C)n(CC3CCCO3)c2C)cc1[N+](=O)[O-] (stereo not drawn) returns the recorded outcome of this test.
F

GET /call?item= "CCCn1c(SCC(=O)c2ccc3c(c2)OCCO3)nnc1C(C)C" returns the recorded outcome of this test.
F

GET /call?item= "O=C(Cn1cc(C(=O)C2CC2)c2ccccc21)Nc1ccccc1Cl" returns the recorded outcome of this test.
F

GET /call?item= "O=C(/C=C/c1ccc2c(c1)OCO2)NCc1ccc(F)cc1" returns the recorded outcome of this test.
F

GET /call?item= Cc1ccsc1C(=O)NC1CCCCC1C (stereo not drawn) returns the recorded outcome of this test.
F

GET /call?item= "COc1cccc(-c2nnc(SCCOc3ccc4c(C)cc(=O)oc4c3)o2)c1" returns the recorded outcome of this test.
F

GET /call?item= CCN1C(=O)C(C(=O)NC(C)c2ccccc2)C2CC1(C)Oc1ccccc12 (stereo not drawn) returns the recorded outcome of this test.
F

GET /call?item= "O=[N+]([O-])c1cc(S(=O)(=O)NCCc2ccccn2)ccc1Cl" returns the recorded outcome of this test.
F

GET /call?item= "CC(C)Oc1ccc(C(=O)NCC(=O)Nc2ccc3c(c2)CCC3)cc1" returns the recorded outcome of this test.
F

GET /call?item= "COc1ccccc1NC(=O)COC(=O)CNC(=O)C1CCCCC1" returns the recorded outcome of this test.
F

GET /call?item= "O=[N+]([O-])c1ccc2c(c1)Nc1nc3ccccc3nc1N2" returns the recorded outcome of this test.
F

GET /call?item= "COc1ccc(OC)c(NC(=O)Cn2c(=O)oc3ccccc32)c1" returns the recorded outcome of this test.
F

GET /call?item= "O=C(O)c1c(NC(=O)N2CCCC2)sc2c1CCCC2" returns the recorded outcome of this test.
F

GET /call?item= "O=C(CSc1ncnc2c1nnn2Cc1ccc(F)cc1)NC1CCCC1" returns the recorded outcome of this test.
F

GET /call?item= "O=C(Nc1sc2c(c1C(=O)O)CCC2)c1ccccc1F" returns the recorded outcome of this test.
T

GET /call?item= "Cc1sc(NC(=S)NC(=O)c2cccs2)nc1-c1ccc(CC(C)C)cc1" returns the recorded outcome of this test.
F

GET /call?item= "CCCCNC(=O)N1CCN(S(C)(=O)=O)CC1" returns the recorded outcome of this test.
F

GET /call?item= "Cn1cc(-c2ccccc2)cc(C#N)c1=O" returns the recorded outcome of this test.
F

GET /call?item= CCN(C(=O)COc1cccnc1[N+](=O)[O-])C1CCS(=O)(=O)C1 (stereo not drawn) returns the recorded outcome of this test.
F

GET /call?item= "Cc1ccc(CNC(=O)[C@@H](NC(=O)Cc2ccccc2)C(C)C)cc1" returns the recorded outcome of this test.
F

GET /call?item= "CCOC(=O)N1CCN(c2c(NCCN3CCN(c4ccccc4F)CC3)c(=O)c2=O)CC1" returns the recorded outcome of this test.
F

GET /call?item= "CCOC(=O)c1sc(NC(=O)c2ccncc2)nc1C" returns the recorded outcome of this test.
T

GET /call?item= "O=C(COC(=O)/C=C/c1cn(-c2ccccc2)nc1-c1cccnc1)Nc1ccc(Cl)cc1Cl" returns the recorded outcome of this test.
F

* * *

Measured On: Sentrin-specific protease 8 (Homo sapiens) (UniProt Q96LD8)
Assay Summary: blockers of human SENP8 peptidase activity – biochemical, luminescence, primary screen (AID 2540)
Condition Context: purified SENP8, Z-RLRGG-aminoluciferin cleavage, at 10 µM
Hit rate of the full screen: of about 330,000 compounds, about 4,100 (1.2%) were called active. Rule as the data show it: active = inhibition above about 50%; inactive = the rest. Many of the other results were omitted from the sample, so actives are more common in it than they were.
Just give me one of these, please: true (1) (active), false (0) (inactive)

GET /call?item= CCCCNC(=O)C1CCCNC1=O (stereo unspecified) returns the recorded outcome of this test.
false (0)

GET /call?item= CC1CC(C)CN(CCC(=O)Nc2ccc3c(c2)CCC3)C1 (stereo unspecified) returns the recorded outcome of this test.
false (0)

GET /call?item= "CCN(C(=O)CSc1nnc(-c2ccncc2)o1)c1ccccc1" returns the recorded outcome of this test.
false (0)

GET /call?item= "CN1CCC(N(C)S(=O)(=O)c2ccc(NC(=O)c3cccc(C#N)c3)cc2)CC1" returns the recorded outcome of this test.
false (0)

GET /call?item= "O=C(Nc1ccc2c(c1)CCC2)c1ccc(Br)s1" returns the recorded outcome of this test.
true (1)

GET /call?item= "O=C(NCCOc1cccnc1)c1ccc(OC2CCN(Cc3ccccn3)CC2)cc1" returns the recorded outcome of this test.
false (0)

* * *

Measured On: Sentrin-specific protease 8 (Homo sapiens)
Assay Summary: blockers of human SENP8 peptidase activity – biochemical, luminescence, primary screen (AID 2540)
Condition Context: purified SENP8, Z-RLRGG-aminoluciferin cleavage, at 10 µM, active compounds read high
Screen size: about 330,000 compounds; about 4,100 (1.2%) were called active. For the sample, actives were picked, then their nearest neighbours and some compounds at random.
Property Name: inhibition (%)
Give your result in % as a bare value.

Consider the molecule "NC1=NN(c2cccc(C(=O)O)c2)C(=O)C1" and give its recorded inhibition.
-5.54

Consider the molecule "Cc1oc(-c2cccc(Cl)c2)[n+]([O-])c1C" and give its recorded inhibition.
-7.45

Consider the molecule "O=C(O)c1ccc(N=NN2CCOCC2)cc1" and give its recorded inhibition.
1.65

Consider the molecule "CC(=O)c1cc2c(cc1NC(=O)CN1CCCCCC1)OCO2" and give its recorded inhibition.
6.92

Consider the molecule "COc1cc(/C=C(\C#N)c2nc3ccccc3[nH]2)ccc1O" and give its recorded inhibition.
91.8

Consider the molecule "CCCc1cc(C(=O)Nc2ccc(C(=O)OC)cc2)cs1" and give its recorded inhibition.
-3.33

Consider the molecule CCOC(=O)C(C)n1cnc2c(nnn2-c2cccc(OC)c2)c1=O (stereo not given) and give its recorded inhibition.
-4.12

Consider the molecule "c1c2c(cc3sc(N4CCCCC4)nc13)OCCO2" and give its recorded inhibition.
96.5

Consider the molecule "CCCCOc1ccc(-c2nnc(-c3ccco3)o2)cc1" and give its recorded inhibition.
64.8

Consider the molecule COc1cc(/C=C(\C#N)c2nc3c(s2)CC(C)CC3)ccc1O (stereo not given) and give its recorded inhibition.
-4.73

Consider the molecule "Cc1cccc(CN2CCC(CNC(=O)Nc3ccc(F)c(Cl)c3)CC2)c1" and give its recorded inhibition.
-1.33

Consider the molecule "COc1cc(/C=N/N=C(\N)c2nonc2N)cc(OC)c1OC" and give its recorded inhibition.
-1.1

Consider the molecule "CCN(CC)c1ccc(S(=O)(=O)N2CCCCC2)cc1NC(=O)C1=COCCO1" and give its recorded inhibition.
-1.53

Consider the molecule "Cc1cc(Nc2ccc(Br)cc2)nc2ccccc12" and give its recorded inhibition.
-6.96

Consider the molecule "Fc1ccc2nc(Nc3nc4c(s3)CCCC4)sc2c1" and give its recorded inhibition.
3.05

Consider the molecule "O=C(NCC(=O)N1CCN(c2ccccc2O)CC1)c1ccc2ccccc2c1" and give its recorded inhibition.
-4.96

Consider the molecule NC1=NC(=O)C(Cc2cccc(Cl)c2)S1 (stereo not given) and give its recorded inhibition.
-2.31

Consider the molecule "O=c1c2ccccc2ncn1/N=C/c1ccccc1" and give its recorded inhibition.
80.9

Consider the molecule "CN(C)CCCN(C(=O)c1ccc(S(=O)(=O)N2CCCCCC2)cc1)c1nc2cc3c(cc2s1)OCCO3" and give its recorded inhibition.
6.61

Consider the molecule "Clc1ccc(Nc2ccc3ccccc3n2)cc1" and give its recorded inhibition.
82.3

Consider the molecule Cc1cccc(NS(=O)(=O)c2ccc(C)c(C(=O)NCC(c3ccccc3)N(C)C)c2)c1 (stereo not given) and give its recorded inhibition.
8.98

Consider the molecule "Cc1cccc(NS(=O)(=O)c2cccc(C(=O)NNC(=O)c3ccccc3O)c2)c1" and give its recorded inhibition.
50.1

Consider the molecule "CCN1CCN(c2ccc(S(=O)(=O)N3CCCCC3)cc2NC(=O)c2cccc(NC(C)=O)c2)CC1" and give its recorded inhibition.
-4.93

Consider the molecule "Oc1c(Cl)cc(Cl)c(Cl)c1Cc1c(O)c(Cl)cc(Cl)c1Cl" and give its recorded inhibition.
28.5

Consider the molecule "COc1ccccc1C1=CC(=O)C[C@H](c2ccc(F)cc2)C1" and give its recorded inhibition.
-4.36

Consider the molecule "O=C(Cn1c(=S)nc2ccccn21)N1CCc2ccccc2C1" and give its recorded inhibition.
0.682

Consider the molecule "CCCCSc1nnc(-c2ccc(C)cc2)o1" and give its recorded inhibition.
33.5

Consider the molecule "CCC(C)(C)c1ccc(Oc2ccc(NC(=O)COC(=O)C3=COCCO3)cc2)cc1" and give its recorded inhibition.
-2.31

Consider the molecule "CN(C(=O)Nc1ccc(Cl)cc1)n1cnc2ccccc2c1=O" and give its recorded inhibition.
-6.28

Consider the molecule O=C(NCCc1cccc(F)c1)C1CCCN(c2nc3ccccc3s2)C1 (stereo not given) and give its recorded inhibition.
12.2

Consider the molecule "N#CC1=C(N)C(C#N)(C#N)[C@H](c2ccsc2)[C@H]2COCC=C12" and give its recorded inhibition.
-3.51

Consider the molecule "O=C(COC(=O)c1cnccn1)Nc1cccc2ccccc12" and give its recorded inhibition.
1.04

Consider the molecule "O=C(Nc1cccc(NC(=O)c2cccc(F)c2)c1)c1ccccc1" and give its recorded inhibition.
-15.3

Consider the molecule CC1CN(S(=O)(=O)c2ccc(C(=O)Nc3sccc3C(N)=O)cc2)CC(C)O1 (stereo not given) and give its recorded inhibition.
-3.19

Consider the molecule "Cc1ccc(S(=O)(=O)N2CCCCC2)cc1NC(=O)c1cccnc1" and give its recorded inhibition.
-12.3

Consider the molecule "CCOC(=O)N1CCN(C(=O)Cn2cnc3ccccc3c2=O)CC1" and give its recorded inhibition.
-8.63

Consider the molecule CCOc1ccccc1N1C(=O)CC(Sc2nccc(C)n2)C1=O (stereo not given) and give its recorded inhibition.
1.56

Consider the molecule "Fc1ccc2nc(N3CCCCC3)sc2c1" and give its recorded inhibition.
72.2

Consider the molecule C#CCOCCOCCOCCNc1nc(N2CCN(C(=O)[C@H](CCCN=C(N)N)n3cc(C(N)[C@@H](C)CC)nn3)CC2)nc(N2CCN(C(=O)[C@H](CO)n3cc([C@@H](N)C(C)C)nn3)CC2)n1 (stereo not given in full) and give its recorded inhibition.
5.69

Consider the molecule "Nc1[nH]c(=S)nc2nc(-c3ccccc3)c(-c3ccccc3)nc12" and give its recorded inhibition.
-9.6

Consider the molecule "O=C(O)c1cccc(N=NN2CCCCCC2)c1" and give its recorded inhibition.
88.8

Consider the molecule "COc1ccc(S(=O)(=O)Nc2ccc(F)cc2)c(C)c1C" and give its recorded inhibition.
3.56

Consider the molecule "COc1ccccc1CNC(=O)CSc1nc(=O)n(Cc2ccncc2)c2c1CCC2" and give its recorded inhibition.
-3.51

Consider the molecule "Cc1ccc2nc(/C(C#N)=C\c3ccc(OC(=O)c4cccs4)cc3)[nH]c2c1" and give its recorded inhibition.
3.01

Consider the molecule CC(NC(=O)c1cc2cc(Cl)ccc2oc1=N)c1ccccc1 (stereo not given) and give its recorded inhibition.
-6.62
